Source of measurements: paper PMC7112944

Biological target: T1, N_(460–525) (measles virus, UniProt P04851 460-525)
T1 sequence (looked up): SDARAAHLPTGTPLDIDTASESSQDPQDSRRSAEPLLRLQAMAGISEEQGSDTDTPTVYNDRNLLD
Assay: ITC + NMR titration
OUTCOME MEASURE: Kd

For the binder shown here, Phosphoprotein XD domain (PXD), P_(457–507) (domain or fragment, measles virus, UniProt P03422 457-507, looked up) GPASRSVIRSIIKSSRLEEDRKRYLMTLLDDIKGANDLAKFHQMLMKIIMK , give the reported Kd. ~5 µM
